biological target: Plasminogen (Homo sapiens); settings: at 250 µM
Sequence (P00747 97-580 limits assumed): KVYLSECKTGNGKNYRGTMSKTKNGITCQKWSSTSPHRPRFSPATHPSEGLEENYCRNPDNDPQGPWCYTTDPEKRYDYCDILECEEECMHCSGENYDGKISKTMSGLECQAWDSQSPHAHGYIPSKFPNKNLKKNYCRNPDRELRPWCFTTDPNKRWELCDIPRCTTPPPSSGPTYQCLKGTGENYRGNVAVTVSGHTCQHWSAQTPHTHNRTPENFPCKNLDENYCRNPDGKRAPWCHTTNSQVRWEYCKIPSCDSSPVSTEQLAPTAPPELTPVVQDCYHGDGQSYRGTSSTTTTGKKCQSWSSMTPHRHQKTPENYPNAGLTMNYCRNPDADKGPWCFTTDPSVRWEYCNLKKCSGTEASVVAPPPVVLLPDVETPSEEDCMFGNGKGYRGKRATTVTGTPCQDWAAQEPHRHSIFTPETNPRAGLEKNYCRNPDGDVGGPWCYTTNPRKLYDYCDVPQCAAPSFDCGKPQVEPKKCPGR
Sequence (P00747 581-810 limits assumed): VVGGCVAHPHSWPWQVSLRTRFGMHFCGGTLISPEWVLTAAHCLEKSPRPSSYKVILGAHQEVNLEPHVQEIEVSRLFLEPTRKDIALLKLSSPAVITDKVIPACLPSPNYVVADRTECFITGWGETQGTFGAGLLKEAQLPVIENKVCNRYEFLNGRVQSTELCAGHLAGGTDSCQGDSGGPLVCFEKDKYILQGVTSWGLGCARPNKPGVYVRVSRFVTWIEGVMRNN
Description: Inhibitory activity against plasmin at a concentration of 250 uM
Listed below: inhibition values for each entry.
property: inhibition (%)

{"compound": "C[C@H](NC(=O)[C@@H](CO)NC(=O)OCc1ccccc1)C(=O)NC(c1ccc(NC(=N)N)cc1)P(=O)(Oc1ccccc1)Oc1ccccc1 (some centres undefined)", "unit of measure": "%", "result value": 46}
{"compound": "N=C(N)NC(=O)c1nc(Cl)c(N)nc1N [AMILORIDE]", "unit of measure": "%", "result value": 23}
{"compound": "C[C@H](NC(=O)[C@@H](CO)NC(=O)OCc1ccccc1)C(=O)NC(c1ccc(CN=C(N)N)cc1)P(=O)(Oc1ccccc1)Oc1ccccc1 (some centres undefined)", "unit of measure": "%", "result value": 45}
{"compound": "C[C@H](NC(=O)[C@@H](CO)NC(=O)OCc1ccccc1)C(=O)NC(CCN=C(N)N)P(=O)(Oc1ccccc1)Oc1ccccc1 (some centres undefined)", "unit of measure": "%", "result value": 15}

---

molecular target: Urokinase-type plasminogen activator (Homo sapiens, UniProt P00749); assay: Inhibitory activity against Urokinase-type plasminogen activator
Listed below: K app values for each entry.

{"compound": "C[C@H](NC(=O)[C@@H](CO)NC(=O)OCc1ccccc1)C(=O)NC([C@H]1CC[C@H](CN=C(N)N)CC1)P(=O)(Oc1ccccc1)Oc1ccccc1 (stereo partly drawn)", "K app": "1.4 M⁻¹ s⁻¹"}
{"compound": "C[C@H](NC(=O)[C@@H](CO)NC(=O)OCc1ccccc1)C(=O)NC(Cc1ccc(NC(=N)N)cc1)P(=O)(Oc1ccccc1)Oc1ccccc1 (stereo partly drawn)", "K app": "6.7 M⁻¹ s⁻¹"}
{"compound": "C[C@H](NC(=O)[C@@H](CO)NC(=O)OCc1ccccc1)C(=O)NC(c1ccc(CN=C(N)N)cc1)P(=O)(Oc1ccccc1)Oc1ccccc1 (stereo partly drawn)", "K app": "3.3 M⁻¹ s⁻¹"}

---

Data export: IC50 values recorded with Urokinase-type plasminogen activator (Homo sapiens).

{"compound": "C[C@H](NC(=O)[C@@H](CO)NC(=O)OCc1ccccc1)C(=O)NC(CCCCN=C(N)N)P(=O)(Oc1ccccc1)Oc1ccccc1 (some centres undefined)", "assay system": "Urokinase-type plasminogen activator (Homo sapiens)", "unit of measure": "nM", "IC50": 250}
{"compound": "C[C@H](NC(=O)[C@@H](CO)NC(=O)OCc1ccccc1)C(=O)NC(c1ccc(N=C(N)N)cc1)P(=O)(Oc1ccccc1)Oc1ccccc1 (some centres undefined)", "assay system": "Urokinase-type plasminogen activator (Homo sapiens)", "unit of measure": "nM", "IC50": 1600}
{"compound": "C[C@H](NC(=O)[C@@H](CO)NC(=O)OCc1ccccc1)C(=O)NC(CCNC(=N)N)P(=O)(Oc1ccccc1)Oc1ccccc1 (some centres undefined)", "assay system": "Urokinase-type plasminogen activator (Homo sapiens)", "unit of measure": "nM", "IC50": 4100}
{"compound": "C[C@H](NC(=O)[C@@H](CO)NC(=O)OCc1ccccc1)C(=O)NC(CCCNC(=N)N)P(=O)(Oc1ccccc1)Oc1ccccc1 (some centres undefined)", "assay system": "Urokinase-type plasminogen activator (Homo sapiens)", "unit of measure": "nM", "IC50": 61}

---

molecular target: Urokinase-type plasminogen activator (Homo sapiens); experiment: Inhibitory activity against Urokinase-type plasminogen activator

{"molecule": "C[C@H](NC(=O)[C@@H](CO)NC(=O)OCc1ccccc1)C(=O)NC(CCN=C(N)N)P(=O)(Oc1ccccc1)Oc1ccccc1 (stereo partly drawn)", "assay system": "Urokinase-type plasminogen activator (Homo sapiens)", "K app / M⁻¹ s⁻¹": 1.4}
{"molecule": "C[C@H](NC(=O)[C@@H](CO)NC(=O)OCc1ccccc1)C(=O)NC(c1ccc(NC(=N)N)cc1)P(=O)(Oc1ccccc1)Oc1ccccc1 (stereo partly drawn)", "assay system": "Urokinase-type plasminogen activator (Homo sapiens)", "K app / M⁻¹ s⁻¹": 2}
{"molecule": "C[C@H](NC(=O)[C@@H](CO)NC(=O)OCc1ccccc1)C(=O)NC(CCCCN=C(N)N)P(=O)(Oc1ccccc1)Oc1ccccc1 (stereo partly drawn)", "assay system": "Urokinase-type plasminogen activator (Homo sapiens)", "K app / M⁻¹ s⁻¹": 3.8}

---

Data export: IC50 values recorded with Plasminogen (Homo sapiens).

{"compound": "C[C@H](NC(=O)[C@@H](CO)NC(=O)OCc1ccccc1)C(=O)NC(Cc1ccc(N=C(N)N)cc1)P(=O)(Oc1ccccc1)Oc1ccccc1 (stereo partly drawn)", "IC50, µM": 22}
{"compound": "C[C@H](NC(=O)[C@@H](CO)NC(=O)OCc1ccccc1)C(=O)NC([C@H]1CC[C@H](CN=C(N)N)CC1)P(=O)(Oc1ccccc1)Oc1ccccc1 (stereo partly drawn)", "IC50, µM": 32.2}
{"compound": "C[C@H](NC(=O)[C@@H](CO)NC(=O)OCc1ccccc1)C(=O)NC(CCCNC(=N)N)P(=O)(Oc1ccccc1)Oc1ccccc1 (stereo partly drawn)", "IC50, µM": 10.8}

---

target: Tissue-type plasminogen activator (Homo sapiens)
Sequence (P00750 whole entry): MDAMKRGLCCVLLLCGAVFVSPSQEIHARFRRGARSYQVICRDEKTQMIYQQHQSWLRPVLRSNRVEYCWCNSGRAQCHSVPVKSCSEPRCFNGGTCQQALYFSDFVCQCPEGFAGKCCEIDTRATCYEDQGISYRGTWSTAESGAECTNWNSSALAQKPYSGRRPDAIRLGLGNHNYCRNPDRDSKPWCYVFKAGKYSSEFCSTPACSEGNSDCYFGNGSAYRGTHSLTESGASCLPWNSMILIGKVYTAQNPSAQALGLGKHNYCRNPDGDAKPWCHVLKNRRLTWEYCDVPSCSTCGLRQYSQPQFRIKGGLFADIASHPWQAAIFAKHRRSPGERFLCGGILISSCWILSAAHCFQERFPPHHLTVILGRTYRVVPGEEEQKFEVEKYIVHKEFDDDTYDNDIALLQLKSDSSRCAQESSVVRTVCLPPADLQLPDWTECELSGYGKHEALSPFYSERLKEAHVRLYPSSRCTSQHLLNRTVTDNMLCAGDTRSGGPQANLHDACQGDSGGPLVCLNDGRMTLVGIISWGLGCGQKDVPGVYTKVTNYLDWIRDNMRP
pIC50: −log10 of the molar value.
property: pIC50

{"molecule": "C[C@H](NC(=O)[C@@H](CO)NC(=O)OCc1ccccc1)C(=O)NC(Cc1ccc(N=C(N)N)cc1)P(=O)(Oc1ccccc1)Oc1ccccc1 (some centres not stated)", "value prefix": "=", "result value": 4.85}
{"molecule": "N=C(N)NC(=O)c1nc(Cl)c(N)nc1N [AMILORIDE]", "value prefix": "<", "result value": 3.60}

---

target: Urokinase-type plasminogen activator (Homo sapiens)
property: IC50

{"compound": "C[C@H](NC(=O)[C@@H](CO)NC(=O)OCc1ccccc1)C(=O)NC(Cc1ccc(N=C(N)N)cc1)P(=O)(Oc1ccccc1)Oc1ccccc1 (stereo partly drawn)", "result value": "57 nM"}
{"compound": "C[C@H](NC(=O)[C@@H](CO)NC(=O)OCc1ccccc1)C(=O)NC(c1ccc(CN=C(N)N)cc1)P(=O)(Oc1ccccc1)Oc1ccccc1 (stereo partly drawn)", "result value": "8400 nM"}
{"compound": "C[C@H](NC(=O)[C@@H](CO)NC(=O)OCc1ccccc1)C(=O)NC([C@H]1CC[C@H](CN=C(N)N)CC1)P(=O)(Oc1ccccc1)Oc1ccccc1 (stereo partly drawn)", "result value": "1100 nM"}
